// data source = PubChem BioAssay (NCI)

assay: NCI Yeast Anticancer Drug Screen. Data for the CLN2oe strain (AID 163);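 further: 0% = growth of vehicle-only control cultures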; conditions: S. cerevisiae CLN2oe strain, at 11.0 µM, stronger effect = higher value
About 79,000 compounds went through this panel and 15% of them were active in at least one assay; those are over-represented in the sample as a whole. Active and inactive are the calls of the source. No stated cut-off is given here; in the data, active means growth inhibition above about 70%; inactive means the rest.
List of growth inhibition values.

Before answering, review these 5 worked examples.
INSERT INTO results (molecule, property_measured, measured_result) VALUES
  ('CCCCCCCCCCCCCCCCOCC(Cl)COP(=O)(O)OP(=O)(O)OCC1OC(n2cnc3c(N)ncnc32)C(O)C1O (stereo not drawn)', 'growth inhibition', '-4% (inactive)'),
  ('COc1ccc2nc3cccc([N+](=O)[O-])c3c(NCCCO)c2c1', 'growth inhibition', '88% (active)'),
  ('O=C(O)NCC1CCCCC1 (tested in a mixture with another compound)', 'growth inhibition', '-6% (inactive)'),
  ('CSc1ccc2c(c1)C(N1CCN(C)CC1)Cc1ccccc1S2 (stereo not drawn)', 'growth inhibition', '13% (inactive)'),
  ('CCOC(=O)c1sc2[n+](c1C)C(=O)/C(=C/c1cc(OC)c(OC)c(OC)c1)S2', 'growth inhibition', '26% (inactive)');

Please examine the following record next.
-- ask Look up growth inhibition of Cc1cccc(N2CCN(C(=O)/C(=C/c3ccccc3)NC(=O)c3ccccc3)CC2)c1 and report it.
-- reply 3% (inactive)

###

List of growth inhibition values.
test: NCI Yeast Anticancer Drug Screen. Data for the mec2-1 strain (AID 157); details: S. cerevisiae mec2-1 strain, at 5.0 µM (retest, dose inferred, filed as 0.5), stronger effect = higher value
This is part of a sample that, as a whole, favours compounds with a hit. Of some 79,000 tested, about 15% had one in any assay.
Report only the number, with the unit % understood.

INSERT INTO results (compound, unit_text, measured_result) VALUES
  ('CCOC(=O)/C=C1\CCCn2c1ncc(C(=O)OCC)c2=O', '%', -5),
  ('COc1ccc2nc3cccc([N+](=O)[O-])c3c(NCCCO)c2c1', '%', 97),
  ('CCCCCC/C(C)=N/Nc1ccc([N+](=O)[O-])cc1[N+](=O)[O-]', '%', 1),
  ('CCC(C)C(=O)OCC(=O)c1ccc(-c2ccccc2)cc1 (configuration not stated)', '%', -3),
  ('CCC1SC(=S)N(c2ccc(Cl)cc2)C1=O (configuration not stated)', '%', 1),
  ('O=c1[nH]cc(F)c(=O)[nH]1', '%', 26),
  ('CN(C)N=Nc1ccc(NC=O)cc1', '%', 23),
  ('O=C1OC(/C=C/c2ccccc2)Sc2ccccc21 (configuration not stated)', '%', 10),
  ('O=C(Nn1c(-c2ccccc2)nc2ccccc2c1=O)c1ccc(Cl)cc1', '%', -3),
  ('Cc1c2ccncc2c(C)c2c1oc1ccccc12', '%', 29);

-- ask Look up growth inhibition of CCOC(=O)C1=C(C)NC(C)=C(C(=O)OCC)C1c1cccc([N+](=O)[O-])c1 and report it.
-- reply 35

-- ask Look up growth inhibition of O=[N+]([O-])c1ccc2nnnn2c1 and report it.
-- reply 3

-- ask Look up growth inhibition of CCCCCCCCCCCCCCCCOCC(Cl)COP(=O)(O)OP(=O)(O)OCC1OC(n2cnc3c(N)ncnc32)C(O)C1O (configuration not stated) and report it.
-- reply 36
